ASSAY COMMENT: Cytotoxicity assay, influenza A test
Format: cell-based
CONDITION: cells infected with Influenza A (cell line not given); cells of the Influenza A test; read-out: Cytotoxicity (CC50) INFL.A
TEST READOUT: CC50

CC50 for "NC(=O)c1ncn([C@H]2O[C@@H](CO)[C@H](O)[C@@H]2O)n1" is > 200 µM
